Assay: Anticancer human tumor 997537-175-T-J1-PDC patient-derived colon adenocarcinoma cell line growth inhibition [POLQ];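 note: luminescence signal used as a surrogate for viable cells; spheroids exposed to drugs for seven days before readout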
Details: 997537-175-T-J1-PDC complex spheroid viability, combination with POLQ inhibitors; curve of first compound; second compound 1 µM
Experimental readout: pIC50
API: returns pIC50 as number; meaning -log10 of concentration in mol/L.

Molecule	Observed measurement
COc1cccc2c1C(=O)c1c(O)c3c(c(O)c1C2=O)CC(O)(C(=O)CO)CC3OC1CC(N)C(O)C(C)O1 (stereo not given) + Nc1ccc(C#CCN(C(=O)Cc2ncc(C(F)(F)F)cc2C(F)(F)F)c2ccc(F)cc2)nn1	5.67

Let's switch to this molecule now.
Entry under test: COc1cccc(OCCCN)c1-c1cc(Nc2cnc(C#N)cn2)n[nH]1 + Cc1cccc(N(C)C(=O)C2C(O)CCN2c2nc(C)cc(C(F)(F)F)c2C#N)c1 . Its pIC50 was 7.41
